System: AR mRNA
protocol: Dose-dependent antisense inhibition of human AR in HuVEC cells (electroporation, qRT-PCR RTS3559, IC50)
Type: cell-based
conditionDescription: 1000.0 nM; HuVEC, ~16 h; Table 11
Oligonucleotides are written 5' to 3', each unit as a sugar letter and its base; * is a phosphorothioate linkage, no mark a phosphodiester; rarer units and linkages stand in square brackets, end groups in braces. Plain capitals give the bases only. e = 2'-O-(2-methoxyethyl) (MOE); k = constrained ethyl (cEt); [5mC] = 5-methylcytosine; d = 2'-deoxy (DNA)
Listing of entries alongside the reported percent inhibition of AR.
Entry rule: numbers only, all in %.

Answered examples (2):
579672 (antisense eG*kT*kT*eG*kA*kT*dT*dT*dA*dA*dT*dG*dG*kT*kT*kG) [compound 579672] | 86
579669 (antisense eG*kG*kT*eT*eG*kA*kT*dT*dT*dA*dA*dT*dG*dG*kT*kT) [compound 579669] | 91

Task item: GET /values?readout=percent inhibition of AR&item= 579671 (antisense eT*kT*kG*eA*kT*kT*dT*dA*dA*dT*dG*dG*dT*kT*kG*k[5mC]) [compound 579671]
Reply: 77

Task item: For the substance shown here, 579670 (antisense eT*kG*kA*eT*kT*kT*dA*dA*dT*dG*dG*dT*dT*kG*k[5mC]*kA) [compound 579670] , give the reported percent inhibition of AR.
Reply: 70

Task item: Suppose we examine the substance 549458 (kG*kT*kT*dG*dA*dT*dT*dT*dA*dA*dT*dG*dG*kT*kT*kG) [compound 549458] ; what percent inhibition of AR value has been reported?
Reply: 74

###

Tested on: AR mRNA
protocol: Dose-dependent antisense inhibition of human AR in HuVEC cells (electroporation, qRT-PCR RTS3559, IC50)
Format: cell-based
conditionDescription: Table 31; 187.5 nM, HuVEC, electroporation, approximately 16 hours
Oligonucleotides are written 5' to 3', each unit as a sugar letter and its base; * is a phosphorothioate linkage, no mark a phosphodiester; rarer units and linkages stand in square brackets, end groups in braces. Plain capitals give the bases only. k = constrained ethyl (cEt); [5mC] = 5-methylcytosine; d = 2'-deoxy (DNA)
// rule not met strictly below 50% in percent inhibition of AR, 187.5 nM; rule met otherwise

583747 (antisense kG*k[5mC]*kT*dG*d[5mC]*dG*d[5mC]*dT*d[5mC]*dG*d[5mC]*dG*dG*k[5mC]*k[5mC]*kT) [compound 583747] | rule not met

Moving on to the next substance.
Task item: Hi, just wondering whether 583719 (antisense kG*kT*kA*dG*dG*dT*d[5mC]*dT*dT*dG*dG*dA*d[5mC]*kG*kG*k[5mC]) [compound 583719] shows percent inhibition of AR, 187.5 nM of 50% or higher.
Reply: rule not met

###

System: KLK3 mRNA
protocol: KLK3 mRNA (AR target gene) in C4-2B MR cells
Type: cell-based, human
conditionDescription: 5.00 μM
Oligonucleotides are written 5' to 3', each unit as a sugar letter and its base; * is a phosphorothioate linkage, no mark a phosphodiester; rarer units and linkages stand in square brackets, end groups in braces. Plain capitals give the bases only. e = 2'-O-(2-methoxyethyl) (MOE); l = locked nucleic acid (LNA); k = constrained ethyl (cEt); [5mC] = 5-methylcytosine; d = 2'-deoxy (DNA)
assayEndpoint: Percent inhibition of KLK3 mRNA in C4-2B MR cells (%)
Give the value in % but do not write % after it.

549434 (k[5mC]*kT*kA*dA*dA*d[5mC]*dT*dT*d[5mC]*d[5mC]*d[5mC]*dG*dT*kG*kG*k[5mC]) [compound 549434] | 64
549372 (kA*kA*kG*dT*dT*dG*dT*dA*dG*dT*dA*dG*dT*k[5mC]*kG*k[5mC]) [compound 549372] | 80

Task item: Param item = 347526 (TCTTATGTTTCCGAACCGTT; sugars from the 5' end e5 d10 e5, backbone and methylation of C not given here) [compound 347526] ; retrieve measured Percent inhibition of KLK3 mRNA in C4-2B MR cells.
Reply: 16

Task item: Given the substance 549458 (kG*kT*kT*dG*dA*dT*dT*dT*dA*dA*dT*dG*dG*kT*kT*kG) [compound 549458] , what is its reported Percent inhibition of KLK3 mRNA in C4-2B MR cells?
Reply: 92

Task item: Request the reported Percent inhibition of KLK3 mRNA in C4-2B MR cells associated with 554221 (ACCAAGTTTCTTCAGC; sugars from the 5' end l3 d10 l3, all phosphorothioate, methylation of C not given here) [compound 554221]
Reply: 56

###

System: AR mRNA
protocol: Dose-dependent antisense inhibition of human AR in HuVEC cells (electroporation, qRT-PCR RTS3559, IC50)
Format: cell-based
conditionDescription: Table 34; 750.0 nM, HuVEC, electroporation, approximately 16 hours
Oligonucleotides are written 5' to 3', each unit as a sugar letter and its base; * is a phosphorothioate linkage, no mark a phosphodiester; rarer units and linkages stand in square brackets, end groups in braces. Plain capitals give the bases only. k = constrained ethyl (cEt); [5mC] = 5-methylcytosine; d = 2'-deoxy (DNA)
assayEndpoint: percent inhibition of AR, 750.0 nM

584069 (k[5mC]*kA*kG*dA*dG*dT*d[5mC]*dA*dT*d[5mC]*d[5mC]*d[5mC]*dT*kG*k[5mC]*kT; antisense) [compound 584069] | 63%
583996 (k[5mC]*kG*k[5mC]*d[5mC]*dA*dG*dG*dG*dT*dA*d[5mC]*d[5mC]*dA*k[5mC]*kA*k[5mC]; antisense) [compound 583996] | 50%

// next item, percent inhibition of AR, 750.0 nM requested
Task item: For the record 584125 (kG*k[5mC]*k[5mC]*dA*dT*dG*dA*dG*dA*d[5mC]*dA*dG*d[5mC]*kT*kT*kT; antisense) [compound 584125] , what value of percent inhibition of AR, 750.0 nM is listed for AR mRNA?
Reply: 47%

###

System: AR mRNA
protocol: AR mRNA in liver, heart, skeletal muscle, kidney, prostate of cynomolgus monkeys
Format: in vivo
conditionDescription: cynomolgus monkey, 40 mg/kg subcutaneously, weeks 1 to 6, Kidney
Oligonucleotides are written 5' to 3', each unit as a sugar letter and its base; * is a phosphorothioate linkage, no mark a phosphodiester; rarer units and linkages stand in square brackets, end groups in braces. Plain capitals give the bases only. e = 2'-O-(2-methoxyethyl) (MOE); k = constrained ethyl (cEt); [5mC] = 5-methylcytosine; d = 2'-deoxy (DNA)
Assign 1.0 whenever Percent Inhibition of AR mRNA relative to the PBS control, Kidney does not fall below 80%; assign 0.0 whenever it does.

584149 (kG*kT*k[5mC]*dA*dA*dT*dA*dT*d[5mC]*dA*dA*dA*dG*k[5mC]*kA*k[5mC]) [compound 584149] | 0.0
560131 (antisense kT*kT*kG*dA*dT*dT*dT*dA*dA*dT*dG*dG*kT*kT*kG*e[5mC]) [compound 560131] | 0.0
579671 (antisense eT*kT*kG*eA*kT*kT*dT*dA*dA*dT*dG*dG*dT*kT*kG*k[5mC]) [compound 579671] | 0.0
583918 (kA*kG*kT*d[5mC]*dG*d[5mC]*dG*dA*d[5mC]*dT*d[5mC]*dT*dG*kG*kT*kA) [compound 583918] | 0.0
584468 (k[5mC]*kA*kT*dT*dG*dT*dA*d[5mC]*dT*dA*dT*dG*d[5mC]*k[5mC]*kA*kG) [compound 584468] | 1.0
584269 (k[5mC]*k[5mC]*kT*dT*dA*dT*dG*dG*dA*dT*dG*d[5mC]*dT*kG*k[5mC]*kT) [compound 584269] | 1.0

Note: attention shifts to another entry.
Task item: Check this substance for Percent Inhibition of AR mRNA relative to the PBS control, Kidney at or above 80%: 584163 (kG*kA*kA*d[5mC]*dA*dT*dT*dA*dT*dT*dA*dG*dG*k[5mC]*kT*kA) [compound 584163]
Reply: 1.0

###

Test system: AR mRNA
protocol: Antisense inhibition of human AR in HuVEC cells, single concentration (electroporation, qRT-PCR RTS3559)
Format: cell-based
conditionDescription: Table 24, 1,000 nM oligonucleotide, electroporation, approximately 24 hours, relative to untreated control
Oligonucleotides are written 5' to 3', each unit as a sugar letter and its base; * is a phosphorothioate linkage, no mark a phosphodiester; rarer units and linkages stand in square brackets, end groups in braces. Plain capitals give the bases only. k = constrained ethyl (cEt); [5mC] = 5-methylcytosine; d = 2'-deoxy (DNA)
Listed below: % inhibition values for each entry.
Remember to quote the unit after the number.

584183 (kA*k[5mC]*kA*dG*dG*d[5mC]*dT*d[5mC]*dT*dG*dA*d[5mC]*dT*kA*kG*kG; antisense) [compound 584183] | 76%
584152 (kG*kA*kG*dT*dT*dG*dT*dG*dA*dT*dT*dT*d[5mC]*kA*kG*kG; antisense) [compound 584152] | 88%

Task item: Given the entry 584149 (kG*kT*k[5mC]*dA*dA*dT*dA*dT*d[5mC]*dA*dA*dA*dG*k[5mC]*kA*k[5mC]) [compound 584149] , report its measured % inhibition.
Reply: 85%

Task item: Given the entry 549372 (kA*kA*kG*dT*dT*dG*dT*dA*dG*dT*dA*dG*dT*k[5mC]*kG*k[5mC]) [compound 549372] , report its measured % inhibition.
Reply: 63%

Task item: Can you share its % inhibition? I mean this substance: 549458 (kG*kT*kT*dG*dA*dT*dT*dT*dA*dA*dT*dG*dG*kT*kT*kG) [compound 549458]
Reply: 88%

Task item: Record request: % inhibition value, item 584162 (kT*kG*kG*dA*dT*dT*dG*dT*dA*dA*dA*dT*dT*kA*k[5mC]*kG; antisense) [compound 584162]
Reply: 82%

Task item: Any idea what % inhibition was measured for 584179 (kA*kT*kG*dA*dG*dT*d[5mC]*d[5mC]*dT*d[5mC]*dA*dG*dA*kA*kT*k[5mC]; antisense) [compound 584179] ?
Reply: 74%
